Give measured half-life for each item. Keep answers brief.
assay: Solution stability assay (pH 1.0 and pH 7.4, 37° C.); assay type: physicochemical; conditions: pH 1; conversion of the prodrug to compound 1; 37° C.; read-out: Aq. Stability half-life (pH 1/7.4) Hrs (converted)
Numbers only here, please. The scale is h.

Look at this compound and give its reported half-life. CC(C)[C@@H](NC(=O)NCC(C)(C)OC(=O)OCOP(=O)(O)O)C(=O)N1CC[C@](O)(c2ccc(Cl)cc2)C(C)(C)C1
107

Quick one: half-life for CC(C)[C@@H](NC(=O)NCC(C)(C)OC(=O)CCOP(=O)(O)O)C(=O)N1CC[C@](O)(c2ccc(Cl)cc2)C(C)(C)C1 ?
81

half-life lookup needed for CC(C)[C@@H](NC(=O)NCC(C)(C)OC(=O)OCOC(=O)/C=C/C(=O)O)C(=O)N1CC[C@](O)(c2ccc(Cl)cc2)C(C)(C)C1 , thanks.
61
